System: mu opiate receptor (MOR)
Assay: MOR agonist activity using [35S]GTPγS binding assay in striatal membranes
Format: biochemical
Conditions: Series B; 1 μM compound + 1 μM β-FNA
Classes (MOR agonist activity, percent [35S]GTPγS binding at the stated compound concentration): 1: < 40%; 2: ≥ 40% and < 80%; 3: ≥ 80%

Reference set, count: 5
{"COMPOUND": "COc1c2c(cc3c1C(CC(=O)c1ccc(O)c(C)c1)[N+](C)(C)CC3)OCO2 (stereo not drawn)", "CLASS ASSIGNMENT": 3}
{"COMPOUND": "COc1c2c(cc3c1C(CC(O)CCc1ccccc1)N(C)CC3)OCO2 (stereo not drawn)", "CLASS ASSIGNMENT": 2}
{"COMPOUND": "COc1cc(OC)cc(C(=O)CC2c3c(cc4c(c3OC)OCO4)CC[N+]2(C)C)c1 (stereo not drawn)", "CLASS ASSIGNMENT": 2}
{"COMPOUND": "COc1ccccc1CCC(=O)CC1c2c(cc3c(c2OC)OCO3)CC[N+]1(C)C (stereo not drawn)", "CLASS ASSIGNMENT": 3}
{"COMPOUND": "COc1c2c(cc3c1C(CC(=O)c1ccc(C#N)cc1)[N+](C)(C)CC3)OCO2 (stereo not drawn)", "CLASS ASSIGNMENT": 1}

Lab note: which band did COCOc1ccc(CCC(=O)CC2c3c(cc4c(c3OC)OCO4)CC[N+]2(C)C)cc1 (stereo not drawn) land in?
2

State the class of the compound shown: CCOc1ccc(C(=O)CC2c3c(cc4c(c3OC)OCO4)CC[N+]2(C)C)cc1F (stereo not drawn)
1

Assign a bin to COc1c2c(cc3c1C(CC(=O)Cc1ccccc1C)N(C)CC3)OCO2 (stereo not drawn)
3

# classify by MOR agonist activity, percent [35S]GTPγS binding at the stated compound concentration band: COc1c2c(cc3c1C(CC(=O)Cc1ccccc1C)[N+](C)(C)CC3)OCO2 (stereo not drawn)
1

----------
Tested on: mu opiate receptor (MOR)
Assay: MOR agonist activity using [35S]GTPγS binding assay in striatal membranes
Type: biochemical
Conditions: Series B; 1 μM compound, relative to DAMGO
MEASURED ATTRIBUTE: % DAMGO (1 μM) (%)
Kindly answer with a numeric value in %, unit omitted.

Solved cases below.
{"COMPOUND": "COc1cccc(CCC(=O)CC2c3c(cc4c(c3OC)OCO4)CC[N+]2(C)C)c1 (stereo not drawn) [Compound B0034]", "% DAMGO (1 μM) [%]": 88.1}
{"COMPOUND": "COc1ccc(C(=O)CC2c3c(cc4c(c3OC)OCO4)CC[N+]2(C)C)cc1OC (stereo not drawn) [Compound B0026]", "% DAMGO (1 μM) [%]": 87.4}

Next, consider the following compound.
Form field: reported % DAMGO (1 μM) of COc1cccc(CC(=O)CC2c3c(cc4c(c3OC)OCO4)CC[N+]2(C)C)c1OC (stereo not drawn) [Compound B0038]
88.7

----------
System: mu opiate receptor (MOR)
Test: MOR agonist activity using [35S]GTPγS binding assay in striatal membranes
Type: biochemical
Details: Series B; 1 μM compound + 1 μM β-FNA
Quick reference: MOR agonist activity, percent [35S]GTPγS binding at the stated compound concentration of the listed items.
Just the number please, in %, no unit attached.

Consider the worked cases shown below.
{"MOLECULE": "COc1c2c(cc3c1C(CC(O)CCc1ccccc1)[N+](C)(C)CC3)OCO2 (stereo not drawn)", "SUBJECT OF TEST": "mu opiate receptor (MOR)", "RECORDED VALUE": 40.9}
{"MOLECULE": "COc1c2c(cc3c1C(CC(=O)/C=C/c1ccc(Cl)cc1)[N+](C)(C)CC3)OCO2 (stereo not drawn)", "SUBJECT OF TEST": "mu opiate receptor (MOR)", "RECORDED VALUE": 81.4}

Switching to the query record.
Which measured MOR agonist activity, percent [35S]GTPγS binding at the stated compound concentration value corresponds to COc1c2c(cc3c1C(CC(=O)Cc1ccc(Br)cc1)[N+](C)(C)CC3)OCO2 (stereo not drawn) ?
78.0

All values here come from patent US10363239B2.
